Target: TRKB (Homo sapiens (Human))
Assay: Radio-tagged HotSpot kinase assay, TRKB
Assay type: biochemical
Details: 33P-ATP, 120 min, room temperature
quantity.name: IC50

Here are 3 compounds together with their reported answers.
# compound, meas.value
rows = [
    ("CCOc1ccc(F)cc1[C@@H](C)Nc1ccn2ncc(C3=NOC(C)(C)N3)c2n1 [Example 50]", "< 0.5 nM"),
    ("CCOCC1(C)NC(c2cnn3ccc(N[C@H](C)c4cc(F)ccc4O)nc23)=NO1 (stereo partly shown) [Example 66]", "0.5 to 5 nM"),
    ("COC(=O)N1CCC2(CC1)NC(c1cnn3ccc(N[C@H](C)c4cc(F)ccc4OC)nc13)=NO2 [Example 55]", "< 0.5 nM"),
]

Read the next record carefully.
Report IC50 for C[C@@H](Nc1ccn2ncc(C3=NOC(C)(C)N3)c2n1)c1ccccc1Cl [Example 26]
0.5 to 5 nM

----------
Target: TRKC (Homo sapiens (Human))
Sequence (Q16288 32-839): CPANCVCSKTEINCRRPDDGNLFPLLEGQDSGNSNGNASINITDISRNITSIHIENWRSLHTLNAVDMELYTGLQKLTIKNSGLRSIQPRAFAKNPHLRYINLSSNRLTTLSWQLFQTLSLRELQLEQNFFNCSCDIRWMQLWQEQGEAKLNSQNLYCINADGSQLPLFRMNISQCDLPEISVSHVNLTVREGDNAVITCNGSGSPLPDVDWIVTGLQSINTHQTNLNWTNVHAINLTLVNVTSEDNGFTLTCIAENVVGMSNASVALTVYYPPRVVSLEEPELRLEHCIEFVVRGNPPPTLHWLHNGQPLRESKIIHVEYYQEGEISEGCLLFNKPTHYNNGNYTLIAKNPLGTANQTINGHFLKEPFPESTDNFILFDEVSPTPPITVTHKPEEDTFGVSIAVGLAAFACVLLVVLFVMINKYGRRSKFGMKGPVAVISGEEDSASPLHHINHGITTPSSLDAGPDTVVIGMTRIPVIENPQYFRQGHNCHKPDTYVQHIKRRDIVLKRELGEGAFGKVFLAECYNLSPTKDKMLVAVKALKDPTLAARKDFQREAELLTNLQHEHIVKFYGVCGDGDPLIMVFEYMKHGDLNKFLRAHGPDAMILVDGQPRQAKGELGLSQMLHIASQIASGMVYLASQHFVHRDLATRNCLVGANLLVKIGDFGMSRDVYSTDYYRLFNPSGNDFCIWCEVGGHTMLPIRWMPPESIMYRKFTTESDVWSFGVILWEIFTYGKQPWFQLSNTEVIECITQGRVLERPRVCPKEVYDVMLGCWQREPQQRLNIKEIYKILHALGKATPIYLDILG
Assay: Radio-tagged HotSpot kinase assay, TRKC
Type: biochemical
Settings: 33P-ATP, 120 min, room temperature
quantity.name: IC50

Here are 5 compounds together with their reported answers.
# compound, IC50
data = [
    ("COc1ccc(F)cc1[C@@H](C)Oc1ccn2ncc(C3=NOC(C)(C)N3)c2n1", "0.5 to 5 nM"),
    ("CCOc1ccc(F)cc1[C@@H](C)Nc1ccn2ncc(C3=NOC(C)(C)N3)c2n1", "< 0.5 nM"),
    ("C[C@@H](Nc1ccn2ncc(C3=NOC(C)(C)N3)c2n1)c1c(Cl)ccc(F)c1Cl", "0.5 to 5 nM"),
    ("C[C@@H](Nc1ccn2ncc(C3=NOC(C)(C)N3)c2n1)c1cc(F)ccc1F", "< 0.5 nM"),
    ("COc1ccc(F)cc1[C@@H](C)Nc1ccn2ncc(C3=NOC(C)(C)N3)c2n1", "< 0.5 nM"),
]

Report IC50 for `COC(=O)N1CCC2(CC1)NC(c1cnn3ccc(N[C@H](C)c4cc(F)ccc4OC)nc13)=NO2`
< 0.5 nM

----------
Target: TRKB (Homo sapiens (Human))
Assay: Radio-tagged HotSpot kinase assay, TRKB
Format: biochemical
Settings: 33P-ATP, 120 min, room temperature
quantity.name: IC50

Here are 3 molecules together with their reported answers.
# molecule, meas.value
measured = [
    ("C[C@@H](Nc1ccn2ncc(C3=NOC(C)(C)N3)c2n1)c1cc(F)ccc1O [Example 68]", "< 0.5 nM"),
    ("CCc1ccc(F)cc1[C@@H](C)Nc1ccn2ncc(C3=NOC(C)(C)N3)c2n1 [Example 52]", "0.5 to 5 nM"),
    ("CC(C)Oc1ccc(F)cc1[C@@H](C)Nc1ccn2ncc(C3=NOC(C)(C)N3)c2n1 [Example 51]", "< 0.5 nM"),
]

Read the next record carefully.
Report IC50 for COc1ccc(F)cc1[C@@H](C)Nc1ccn2ncc(C3=NOC(C)(C)N3)c2n1 [Example 10]
< 0.5 nM

----------
Target: UniProtKB Q16288
Experiment: Radio-tagged HotSpot kinase assay, TRKC
Format: biochemical
Settings: 33P-ATP, 120 min, room temperature
quantity.name: IC50

Here are 2 compounds together with their reported answers.
# line.notation, IC50
data = [
    ("C[C@@H](Nc1ccn2ncc(C3=NCC(C)(C)N3)c2n1)c1cc(F)ccc1F", "< 0.5 nM"),
    ("COc1ncc(F)cc1[C@@H](C)Nc1ccn2ncc(C3=NOC(C)(C)N3)c2n1", "< 0.5 nM"),
]

Report IC50 for `C[C@@H](Nc1ccn2ncc(C3=NOC(C)(C)N3)c2n1)c1cc(F)cc(F)c1`
0.5 to 5 nM

Report IC50 for `C[C@@H](Nc1ccn2ncc(C3=NOC(C)(C)N3)c2n1)c1cc(F)ccc1Br`
0.5 to 5 nM

Report IC50 for `CC(C)Oc1ccc(F)cc1[C@@H](C)Nc1ccn2ncc(C3=NOC(C)(C)N3)c2n1`
< 0.5 nM

Report IC50 for `Cc1ccc(F)cc1[C@@H](C)Nc1ccn2ncc(C3=NOC(C)(C)N3)c2n1`
0.5 to 5 nM

Report IC50 for `CCc1ccc(F)cc1[C@@H](C)Nc1ccn2ncc(C3=NOC(C)(C)N3)c2n1`
< 0.5 nM

Report IC50 for `C[C@H](Nc1ccn2ncc(C3=NOC(C)(C)N3)c2n1)c1cc(F)cc2ccccc12`
< 0.5 nM

----------
Recorded IC50, one value per entry.
Biological target: ROS1 (G2032R) (Homo sapiens (Human), UniProt P08922, G2032R)
Sequence (P08922 28-2347 G2032R): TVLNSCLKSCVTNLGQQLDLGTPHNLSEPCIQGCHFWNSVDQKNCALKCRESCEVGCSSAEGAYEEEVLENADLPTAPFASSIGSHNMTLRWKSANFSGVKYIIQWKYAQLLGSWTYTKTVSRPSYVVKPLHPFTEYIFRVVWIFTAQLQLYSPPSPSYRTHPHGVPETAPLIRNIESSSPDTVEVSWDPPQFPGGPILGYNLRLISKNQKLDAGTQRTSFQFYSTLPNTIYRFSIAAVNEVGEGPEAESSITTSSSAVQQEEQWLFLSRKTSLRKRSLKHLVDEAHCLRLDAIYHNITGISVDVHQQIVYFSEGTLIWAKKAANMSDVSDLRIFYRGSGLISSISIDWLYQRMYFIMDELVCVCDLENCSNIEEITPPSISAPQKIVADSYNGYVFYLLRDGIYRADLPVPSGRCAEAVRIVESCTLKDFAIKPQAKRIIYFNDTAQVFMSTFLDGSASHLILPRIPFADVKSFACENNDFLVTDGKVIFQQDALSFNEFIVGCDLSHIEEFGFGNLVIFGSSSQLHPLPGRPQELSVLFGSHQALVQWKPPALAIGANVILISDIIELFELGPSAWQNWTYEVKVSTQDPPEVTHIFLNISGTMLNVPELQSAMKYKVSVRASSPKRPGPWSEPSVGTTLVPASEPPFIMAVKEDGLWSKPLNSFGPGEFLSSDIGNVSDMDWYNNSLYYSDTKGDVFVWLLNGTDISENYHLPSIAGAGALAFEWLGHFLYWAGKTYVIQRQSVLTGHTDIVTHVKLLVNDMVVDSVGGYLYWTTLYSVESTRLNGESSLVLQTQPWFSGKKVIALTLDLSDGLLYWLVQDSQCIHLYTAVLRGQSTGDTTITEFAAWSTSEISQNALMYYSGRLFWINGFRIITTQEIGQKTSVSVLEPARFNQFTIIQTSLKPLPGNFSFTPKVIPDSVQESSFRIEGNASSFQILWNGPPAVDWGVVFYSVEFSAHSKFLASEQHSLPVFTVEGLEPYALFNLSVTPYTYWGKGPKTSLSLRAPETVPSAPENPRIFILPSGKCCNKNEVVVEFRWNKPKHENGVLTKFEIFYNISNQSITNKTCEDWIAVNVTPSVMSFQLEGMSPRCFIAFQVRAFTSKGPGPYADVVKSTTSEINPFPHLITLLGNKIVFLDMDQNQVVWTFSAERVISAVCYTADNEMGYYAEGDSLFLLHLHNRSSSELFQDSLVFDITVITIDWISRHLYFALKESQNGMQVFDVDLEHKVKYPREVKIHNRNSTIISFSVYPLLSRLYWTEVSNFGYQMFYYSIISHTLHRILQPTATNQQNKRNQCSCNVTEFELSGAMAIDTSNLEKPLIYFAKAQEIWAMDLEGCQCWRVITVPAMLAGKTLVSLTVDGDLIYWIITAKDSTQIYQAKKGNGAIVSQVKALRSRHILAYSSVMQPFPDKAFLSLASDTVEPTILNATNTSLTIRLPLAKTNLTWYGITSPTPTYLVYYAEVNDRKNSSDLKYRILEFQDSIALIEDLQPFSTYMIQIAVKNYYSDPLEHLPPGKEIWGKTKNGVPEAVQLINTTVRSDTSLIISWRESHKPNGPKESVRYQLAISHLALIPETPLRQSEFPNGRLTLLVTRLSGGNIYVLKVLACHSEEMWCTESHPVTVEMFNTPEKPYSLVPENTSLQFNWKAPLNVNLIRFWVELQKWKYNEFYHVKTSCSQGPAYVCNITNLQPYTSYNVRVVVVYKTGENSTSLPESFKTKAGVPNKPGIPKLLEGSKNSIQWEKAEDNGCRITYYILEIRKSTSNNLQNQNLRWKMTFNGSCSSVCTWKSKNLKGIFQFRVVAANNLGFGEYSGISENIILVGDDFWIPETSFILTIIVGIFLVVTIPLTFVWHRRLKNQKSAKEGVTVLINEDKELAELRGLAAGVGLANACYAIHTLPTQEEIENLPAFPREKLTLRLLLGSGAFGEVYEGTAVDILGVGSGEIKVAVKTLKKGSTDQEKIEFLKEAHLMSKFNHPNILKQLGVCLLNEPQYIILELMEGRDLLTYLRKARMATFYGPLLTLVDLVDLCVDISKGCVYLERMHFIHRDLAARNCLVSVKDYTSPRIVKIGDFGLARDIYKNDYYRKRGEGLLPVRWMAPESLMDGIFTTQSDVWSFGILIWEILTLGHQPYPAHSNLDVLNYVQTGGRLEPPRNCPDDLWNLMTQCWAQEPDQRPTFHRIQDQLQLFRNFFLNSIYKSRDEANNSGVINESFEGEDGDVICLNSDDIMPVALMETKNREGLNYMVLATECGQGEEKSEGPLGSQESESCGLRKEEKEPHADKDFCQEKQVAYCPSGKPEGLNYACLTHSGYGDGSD
Assay: Radio-tagged HotSpot kinase assay, ROS1 (G2032R)
Conditions: read-out: ROS1 (G2032R) (IC50/nM); 33P-ATP, 120 min, room temperature

Here are 3 molecules together with their reported answers.
# molecule, IC50
data = [
    ("CCOCC1(C)NC(c2cnn3ccc(N[C@H](C)c4cc(F)ccc4O)nc23)=NO1 (some centres unmarked)", "< 0.5 nM"),
    ("COc1ncc(F)cc1[C@@H](C)Nc1ccn2ncc(C3=NOC(C)(C)N3)c2n1", "< 0.5 nM"),
    ("C[C@@H](Nc1ccn2ncc(C3=NOC(C)(C)N3)c2n1)c1cc(F)ccc1F", "< 0.5 nM"),
]

Report IC50 for `CC(C)Oc1ccc(F)cc1[C@@H](C)Nc1ccn2ncc(C3=NOC(C)(C)N3)c2n1`
< 0.5 nM

Report IC50 for `COC(=O)N1CCC2(CC1)NC(c1cnn3ccc(N[C@H](C)c4cc(F)ccc4OC)nc13)=NO2`
< 0.5 nM

Report IC50 for CCCCC1NC(c2cnn3ccc(N[C@H](C)c4cc(F)ccc4O)nc23)=NO1 (some centres unmarked)
< 0.5 nM

Report IC50 for `C[C@@H](Nc1ccn2ncc(C3=NOC(C)(C)N3)c2n1)c1cc(F)ccc1O`
< 0.5 nM

Report IC50 for `C[C@@H](Nc1ccn2ncc(C3=NCC(C)(C)N3)c2n1)c1cc(F)ccc1F`
< 0.5 nM

----------
Recorded IC50, one value per entry.
Target: TRKB (Homo sapiens (Human))
Experiment: Radio-tagged HotSpot kinase assay, TRKB
Type: biochemical
Settings: 33P-ATP, 120 min, room temperature

Report IC50 for CCCCC1NC(c2cnn3ccc(N[C@H](C)c4cc(F)ccc4O)nc23)=NO1 (stereo partly shown)
< 0.5 nM

Report IC50 for `COc1ccc(F)cc1[C@@H](C)Oc1ccn2ncc(C3=NOC(C)(C)N3)c2n1`
0.5 to 5 nM

Report IC50 for `C[C@@H](Nc1ccn2ncc(C3=NOC(C)(C)N3)c2n1)c1cc(F)cc(F)c1`
0.5 to 5 nM

Report IC50 for `C[C@@H](Nc1ccn2ncc(C3=NOC(C)(C)N3)c2n1)c1cc(F)ccc1Br`
0.5 to 5 nM

----------
Target: TRKB (Homo sapiens (Human), UniProt Q16620)
Sequence (Q16620 32-822): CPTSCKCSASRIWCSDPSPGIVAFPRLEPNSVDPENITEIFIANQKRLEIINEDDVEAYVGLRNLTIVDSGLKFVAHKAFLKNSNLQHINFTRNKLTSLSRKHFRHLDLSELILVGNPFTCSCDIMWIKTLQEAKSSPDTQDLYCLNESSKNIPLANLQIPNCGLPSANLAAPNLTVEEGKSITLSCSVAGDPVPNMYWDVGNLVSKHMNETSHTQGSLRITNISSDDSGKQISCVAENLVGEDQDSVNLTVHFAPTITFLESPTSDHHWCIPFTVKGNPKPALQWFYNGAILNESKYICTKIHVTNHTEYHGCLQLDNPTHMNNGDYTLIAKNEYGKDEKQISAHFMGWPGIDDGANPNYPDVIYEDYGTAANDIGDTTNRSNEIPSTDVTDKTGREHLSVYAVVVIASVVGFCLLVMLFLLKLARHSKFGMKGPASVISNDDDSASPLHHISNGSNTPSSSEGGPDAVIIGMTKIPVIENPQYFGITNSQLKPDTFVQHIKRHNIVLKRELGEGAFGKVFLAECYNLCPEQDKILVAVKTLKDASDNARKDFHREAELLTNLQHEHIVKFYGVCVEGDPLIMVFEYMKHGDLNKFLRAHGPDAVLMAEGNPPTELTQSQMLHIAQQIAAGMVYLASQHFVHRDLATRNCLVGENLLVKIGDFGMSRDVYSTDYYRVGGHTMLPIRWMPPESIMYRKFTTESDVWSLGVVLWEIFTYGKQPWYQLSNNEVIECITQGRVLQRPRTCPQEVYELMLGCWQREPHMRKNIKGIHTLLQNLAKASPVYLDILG
Assay: Radio-tagged HotSpot kinase assay, TRKB
Format: biochemical
Conditions: 33P-ATP, 120 min, room temperature
Recorded IC50, one value per entry.

Here are 5 compounds together with their reported answers.
# line.notation, meas.value
rows = [
    ("C[C@@H](Nc1ccn2ncc(C3=NCC(C)(C)N3)c2n1)c1cc(F)ccc1F", "0.5 to 5 nM"),
    ("C[C@@H](Nc1ccn2ncc(C3=NOC(C)(C)N3)c2n1)c1c(Cl)ccc(F)c1Cl", "0.5 to 5 nM"),
    ("Cc1nc(-c2cnn3ccc(N[C@H](C)c4cc(F)ccc4O)nc23)no1", "0.5 to 5 nM"),
    ("C[C@@H](Oc1ccn2ncc(C3=NOC(C)(C)N3)c2n1)c1c(Cl)ccc(F)c1Cl", "0.5 to 5 nM"),
    ("COc1ncc(F)cc1[C@@H](C)Nc1ccn2ncc(C3=NOC(C)(C)N3)c2n1", "< 0.5 nM"),
]

Report IC50 for `Cc1ccc(F)cc1[C@@H](C)Nc1ccn2ncc(C3=NOC(C)(C)N3)c2n1`
0.5 to 5 nM

Report IC50 for `C[C@@H](Nc1ccn2ncc(C3=NOC(C)(C)N3)c2n1)c1cc(F)ccc1F`
< 0.5 nM

Report IC50 for `C[C@H](Nc1ccn2ncc(C3=NOC(C)(C)N3)c2n1)c1cc(F)cc2ccccc12`
0.5 to 5 nM

----------
Target: ROS1 (G2032R) (Homo sapiens (Human), UniProt P08922, G2032R)
Assay: Radio-tagged HotSpot kinase assay, ROS1 (G2032R)
Conditions: read-out: ROS1 (G2032R) (IC50/nM); 33P-ATP, 120 min, room temperature
quantity.name: IC50

# line.notation, test.system, meas.value
rows = [
    ("COc1ccc(F)cc1[C@@H](C)Nc1ccn2ncc(C3=NOC(C)(C)N3)c2n1", "ROS1 (G2032R) (Homo sapiens (Human), UniProt P08922, G2032R)", "< 0.5 nM"),
]

Report IC50 for `CCOc1ccc(F)cc1[C@@H](C)Nc1ccn2ncc(C3=NOC(C)(C)N3)c2n1`
< 0.5 nM

Report IC50 for `C[C@H](Nc1ccn2ncc(C3=NOC(C)(C)N3)c2n1)c1cc(F)cc2ccccc12`
< 0.5 nM

The values you see were collected from patent US12435089B2.
